Quick reference: Predicted Hepatocyte CL of the listed items.
# EXPERIMENT_SUMMARY: Hepatocyte stability assay, dog
# Assay type: in vitro ADME
# PARTICULARS: Beagle Dog
Report the figure in mL/min/kg without appending any unit label.

Problem: Sample Nc1nc2cnc(C(=O)N3CCC[C@@H]4Oc5cc(OC(F)(F)F)ccc5[C@@H]43)cc2n2cncc12 [Ff-341] — what was its Predicted Hepatocyte CL?
Result: 12.3

Problem: Sample Cc1ncn2c1c(N)nc1cnc(C(=O)N3CCC[C@@H]4Oc5cc(C(F)(F)F)ccc5[C@@H]43)cc12 [Ff-499] — what was its Predicted Hepatocyte CL?
Result: 15.3

Problem: Sample Nc1nc2ccc(C(=O)N3CCC[C@@H]4Oc5cc(C(F)(F)F)ccc5[C@@H]43)cc2n2cncc12 [Ff-111] — what was its Predicted Hepatocyte CL?
Result: 12.3

Problem: Sample C[C@H]1CN(C(=O)c2cc3c(cc2F)nc(N)c2cncn23)[C@H]2c3ccc(C(F)(F)F)cc3C[C@H]2O1 (single isomer, unassigned) [Ff-81] — what was its Predicted Hepatocyte CL?
Result: 3.5

Problem: Sample Cc1ncc2c(N)nc3cnc(C(=O)N4CCC[C@@H]5Oc6cc(OC(F)(F)F)ccc6[C@@H]54)cc3n12 [Ff-340] — what was its Predicted Hepatocyte CL?
Result: 12

Problem: Sample Nc1nc2cnc(C(=O)N3CCC[C@@H]4Oc5cc(OC(F)(F)F)cc(F)c5[C@@H]43)cc2n2cncc12 (single isomer, unassigned) [Fg-55] — what was its Predicted Hepatocyte CL?
Result: 12.5

Problem: Sample Nc1nc2cnc(C(=O)N3CCC[C@@H]4Oc5cc(C(F)(F)F)cc(F)c5[C@@H]43)cc2n2cncc12 (single isomer, unassigned) [Fg-53] — what was its Predicted Hepatocyte CL?
Result: 10.2
